Target: Ribosyldihydronicotinamide dehydrogenase [quinone] (Homo sapiens, UniProt P16083); also: in the data inactive means no Kd found up to 30 µM
Sequence (P16083 whole entry): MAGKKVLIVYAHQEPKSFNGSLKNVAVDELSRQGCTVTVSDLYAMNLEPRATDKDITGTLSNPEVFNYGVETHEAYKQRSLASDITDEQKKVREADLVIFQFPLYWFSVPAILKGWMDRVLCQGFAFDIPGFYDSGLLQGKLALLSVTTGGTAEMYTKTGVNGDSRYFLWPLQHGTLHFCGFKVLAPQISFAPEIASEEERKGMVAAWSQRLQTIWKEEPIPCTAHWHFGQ
Active and inactive are the calls of the source.
Your reply should match one of these outcome classes. label 1 = active, label 0 = inactive

Answered examples (3):
# compound, tested-system, cat
measured = [
    ("Cc1cc(C(=O)Nc2cc(Oc3ccc4nc(NC(=O)C5CC5)cn4n3)ccc2C)n(C)n1 [TAK-593]", "Ribosyldihydronicotinamide dehydrogenase [quinone] (Homo sapiens, UniProt P16083)", "label 0"),
    ("O=C(NOC[C@H](O)CO)c1ccc(F)c(F)c1Nc1ccc(I)cc1F [MIRDAMETINIB]", "Ribosyldihydronicotinamide dehydrogenase [quinone] (Homo sapiens, UniProt P16083)", "label 0"),
    ("CCc1nc(C(N)=O)c(Nc2ccc(N3CCC(N4CCN(C)CC4)CC3)c(OC)c2)nc1NC1CCOCC1 [GILTERITINIB]", "Ribosyldihydronicotinamide dehydrogenase [quinone] (Homo sapiens, UniProt P16083)", "label 1"),
]

Prompt: Called result for COc1cc2nccc(Oc3ccc(NC(=O)C4(C(=O)Nc5ccc(F)cc5)CC4)cc3)c2cc1OC [CABOZANTINIB]
Response: label 0

Prompt: Called result for N#CCNC(=O)c1ccc(-c2ccnc(Nc3ccc(N4CCOCC4)cc3)n2)cc1 [MOMELOTINIB]
Response: label 0

###

Target: Ras-related protein Rab-6A (Homo sapiens); also: in the data inactive means no Kd found up to 30 µM
Sequence (P20340 whole entry): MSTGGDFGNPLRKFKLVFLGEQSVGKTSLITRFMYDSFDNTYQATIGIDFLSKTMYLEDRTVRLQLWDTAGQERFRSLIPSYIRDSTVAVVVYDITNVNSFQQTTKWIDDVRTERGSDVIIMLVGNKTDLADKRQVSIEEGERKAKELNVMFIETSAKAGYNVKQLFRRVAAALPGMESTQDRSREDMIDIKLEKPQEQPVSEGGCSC
Active and inactive are the calls of the source.
The reader will find reported Kd values listed item by item below.

# mol, Kd
data = [
    ("O=C(NOC[C@H](O)CO)c1ccc(F)c(F)c1Nc1ccc(I)cc1F", "> 30 µM (inactive)"),
    ("COc1cc(Nc2ncc(F)c(Nc3ccc4c(n3)N(COP(=O)(O)O)C(=O)C(C)(C)O4)n2)cc(OC)c1OC", "> 30 µM (inactive)"),
    ("COCCN1CCN(Cc2ccc(-c3n[nH]c4c3C(=O)c3c(NC(=O)NN5CCOCC5)cccc3-4)cc2)CC1", "> 30 µM (inactive)"),
    ("c1cc(OCCN2CCCCC2)cc(-c2n[nH]c3ccc(-c4nc[nH]n4)cc23)c1", "> 30 µM (inactive)"),
    ("C=CC(=O)Nc1cc(Nc2nccc(-c3cn(C)c4ccccc34)n2)c(OC)cc1N(C)CCN(C)C", "> 30 µM (inactive)"),
]

Prompt: Item `O=S(=O)(c1cccc2cnccc12)N1CCCNCC1` with Ras-related protein Rab-6A (Homo sapiens) - Kd?
Response: > 30 µM (inactive)

Prompt: Item `CCOc1ccn(-c2ccc(F)cc2)c(=O)c1C(=O)Nc1ccc(Oc2ccnc(N)c2Cl)c(F)c1` with Ras-related protein Rab-6A (Homo sapiens) - Kd?
Response: > 30 µM (inactive)

###

Biological target: Casein kinase I isoform epsilon (Homo sapiens, UniProt P49674); also: in the data inactive means no Kd found up to 30 µM
Sequence (P49674 whole entry, canonical isoform): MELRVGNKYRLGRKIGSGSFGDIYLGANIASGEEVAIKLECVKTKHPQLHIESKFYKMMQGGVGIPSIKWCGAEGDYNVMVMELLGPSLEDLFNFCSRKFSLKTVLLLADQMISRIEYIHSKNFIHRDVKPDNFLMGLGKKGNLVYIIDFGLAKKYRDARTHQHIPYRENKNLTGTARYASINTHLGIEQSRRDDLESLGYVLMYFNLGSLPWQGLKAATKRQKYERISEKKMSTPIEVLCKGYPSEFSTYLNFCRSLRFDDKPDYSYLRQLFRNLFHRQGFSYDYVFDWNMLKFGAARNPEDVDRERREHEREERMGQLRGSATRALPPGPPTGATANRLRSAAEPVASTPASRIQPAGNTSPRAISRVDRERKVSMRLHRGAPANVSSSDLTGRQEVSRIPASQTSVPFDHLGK
Active and inactive are the calls of the source.
Your reply should match one of these outcome classes. Y for active, N for inactive

Answered examples (6):
# compound, cat
records = [
    ("CN(c1ncccc1CNc1nc(Nc2ccc3c(c2)CC(=O)N3)ncc1C(F)(F)F)S(C)(=O)=O", "N"),
    ("C=CC(=O)Nc1cccc(Nc2nc(Nc3ccc(N4CCN(C(C)=O)CC4)cc3OC)ncc2C(F)(F)F)c1", "N"),
    ("C=CCn1c(=O)c2cnc(Nc3ccc(N4CCN(C)CC4)cc3)nc2n1-c1cccc(C(C)(C)O)n1", "N"),
    ("COc1ccc2c(OCc3nnc4ccc(-c5ccccc5)nn34)ccnc2c1", "N"),
    ("CCOc1ccn(-c2ccc(F)cc2)c(=O)c1C(=O)Nc1ccc(Oc2ccnc(N)c2Cl)c(F)c1", "N"),
    ("C#Cc1cccc(Nc2ncnc3cc4c(cc23)OCCOCCOCCO4)c1", "N"),
]

Prompt: Called result for `CCN(CCCOc1ccc2c(Nc3cc(CC(=O)Nc4cccc(F)c4)n[nH]3)ncnc2c1)CCOP(=O)(O)O`
Response: N

Prompt: Called result for `Cn1c(=O)n(-c2ccc(C(C)(C)C#N)cc2)c2c3cc(-c4cnc5ccccc5c4)ccc3ncc21`
Response: N

Prompt: Called result for `C=CCN(/C=C1/C(=O)O[C@H](COC)[C@@]2(C)C1=C(O)C(=O)C1=C2[C@H](OC(C)=O)C[C@]2(C)C(=O)CC[C@@H]12)CC=C`
Response: N

Prompt: Called result for `Cc1c(NC(=O)OC[C@@H]2COCCN2)cn2ncnc(Nc3ccc4c(cnn4Cc4cccc(F)c4)c3)c12`
Response: N

Prompt: Called result for COc1cc2ncnc(Nc3ccc(F)c(Cl)c3)c2cc1NC(=O)/C=C/CN1CCCCC1 [DACOMITINIB ANHYDROUS]
Response: N

Prompt: Called result for `O=c1[nH]c([C@@H]2CCCN2)nc2c1oc1ccc(Cl)cc12`
Response: N

Prompt: Called result for `COc1cc(Nc2ncc(F)c(Nc3ccc4c(n3)N(COP(=O)(O)O)C(=O)C(C)(C)O4)n2)cc(OC)c1OC`
Response: N

###

A short record of Kd observed with Casein kinase II subunit alpha' (Homo sapiens, UniProt P19784) follows.
Sequence (P19784 whole entry): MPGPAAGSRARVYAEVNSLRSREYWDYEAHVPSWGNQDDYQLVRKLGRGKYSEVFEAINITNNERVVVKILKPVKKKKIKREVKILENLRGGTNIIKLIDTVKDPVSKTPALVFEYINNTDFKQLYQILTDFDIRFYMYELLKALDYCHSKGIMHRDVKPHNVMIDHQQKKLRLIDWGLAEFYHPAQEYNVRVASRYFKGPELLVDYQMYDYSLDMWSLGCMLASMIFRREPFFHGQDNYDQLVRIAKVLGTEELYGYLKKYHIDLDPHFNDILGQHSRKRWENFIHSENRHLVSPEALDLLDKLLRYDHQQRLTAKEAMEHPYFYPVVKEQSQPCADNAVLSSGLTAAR
Active and inactive are the calls of the source.

Prompt: Item `FC(F)(F)c1ccc(CNc2ccc(Cc3c[nH]c4ncc(Cl)cc34)cn2)cn1` with Casein kinase II subunit alpha' (Homo sapiens, UniProt P19784) - Kd?
Response: > 30 µM (inactive)

Prompt: Item `C=CCn1c(=O)c2cnc(Nc3ccc(N4CCN(C)CC4)cc3)nc2n1-c1cccc(C(C)(C)O)n1` with Casein kinase II subunit alpha' (Homo sapiens, UniProt P19784) - Kd?
Response: 0.412 µM (active)

Prompt: Item `CNC(=O)c1ccc(Nc2ncc(C(F)(F)F)c(NCc3nccnc3N(C)S(C)(=O)=O)n2)cc1` with Casein kinase II subunit alpha' (Homo sapiens, UniProt P19784) - Kd?
Response: 1.2 µM (active)

Prompt: Item `Cn1c(=O)n(-c2ccc(C(C)(C)C#N)cc2)c2c3cc(-c4cnc5ccccc5c4)ccc3ncc21` with Casein kinase II subunit alpha' (Homo sapiens, UniProt P19784) - Kd?
Response: > 30 µM (inactive)

Prompt: Item O=S(=O)(c1cccc2c(O)nccc12)N1CCCNCC1 [HYDROXYFASUDIL] with Casein kinase II subunit alpha' (Homo sapiens, UniProt P19784) - Kd?
Response: > 30 µM (inactive)

Prompt: Item `Cc1c(Cn2c(C)nc3c(C(=O)O)cc(N4CCOCC4)cc32)cccc1C(F)(F)F` with Casein kinase II subunit alpha' (Homo sapiens, UniProt P19784) - Kd?
Response: > 30 µM (inactive)

Prompt: Item `Cn1c(=O)c(F)c(Nc2ccc(I)cc2F)c2c(=O)n(C[C@@H](O)CO)cnc21` with Casein kinase II subunit alpha' (Homo sapiens, UniProt P19784) - Kd?
Response: > 30 µM (inactive)

Prompt: Item `Cc1c(NC(=O)OC[C@@H]2COCCN2)cn2ncnc(Nc3ccc4c(cnn4Cc4cccc(F)c4)c3)c12` with Casein kinase II subunit alpha' (Homo sapiens, UniProt P19784) - Kd?
Response: > 30 µM (inactive)

Prompt: Item COc1cc2nccc(Oc3ccc(NC(=O)C4(C(=O)Nc5ccc(F)cc5)CC4)cc3)c2cc1OC [CABOZANTINIB] with Casein kinase II subunit alpha' (Homo sapiens, UniProt P19784) - Kd?
Response: > 30 µM (inactive)

###

Target: Mitogen-activated protein kinase 3 (Homo sapiens); also: in the data inactive means no Kd found up to 30 µM
Sequence (P27361 whole entry): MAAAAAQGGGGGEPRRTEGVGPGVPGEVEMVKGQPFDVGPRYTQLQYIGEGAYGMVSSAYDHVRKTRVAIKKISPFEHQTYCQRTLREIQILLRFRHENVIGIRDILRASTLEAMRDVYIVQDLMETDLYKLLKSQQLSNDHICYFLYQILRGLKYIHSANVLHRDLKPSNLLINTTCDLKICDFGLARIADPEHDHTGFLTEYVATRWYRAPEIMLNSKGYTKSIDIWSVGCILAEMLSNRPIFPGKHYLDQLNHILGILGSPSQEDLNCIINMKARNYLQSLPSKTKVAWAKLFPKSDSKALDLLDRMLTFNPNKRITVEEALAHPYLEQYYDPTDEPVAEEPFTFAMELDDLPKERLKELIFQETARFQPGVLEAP
Activity calls are given as the source filed them.
Your reply should match one of these outcome classes. active, inactive

# compound, tested-system, cat
rows = [
    ("CC1(COc2ccc3c(c2)ncn3-c2ccc3cccc(N4CCC(N)CC4)c3n2)COC1 [CRENOLANIB]", "Mitogen-activated protein kinase 3 (Homo sapiens)", "inactive"),
    ("COc1cccc2cc(-c3nc([C@H]4CC[C@H](C(=O)O)CC4)n4ncnc(N)c34)[nH]c12 [OSI-027]", "Mitogen-activated protein kinase 3 (Homo sapiens)", "inactive"),
    ("CCOc1ccn(-c2ccc(F)cc2)c(=O)c1C(=O)Nc1ccc(Oc2ccnc(N)c2Cl)c(F)c1 [BMS-777607]", "Mitogen-activated protein kinase 3 (Homo sapiens)", "inactive"),
    ("Cc1cc(C(=O)Nc2cc(Oc3ccc4nc(NC(=O)C5CC5)cn4n3)ccc2C)n(C)n1 [TAK-593]", "Mitogen-activated protein kinase 3 (Homo sapiens)", "inactive"),
    ("C=CCn1c(=O)c2cnc(Nc3ccc(N4CCN(C)CC4)cc3)nc2n1-c1cccc(C(C)(C)O)n1 [ADAVOSERTIB]", "Mitogen-activated protein kinase 3 (Homo sapiens)", "inactive"),
]

Prompt: Called result for Cn1c(=O)n(-c2ccc(C(C)(C)C#N)cc2)c2c3cc(-c4cnc5ccccc5c4)ccc3ncc21 [DACTOLISIB]
Response: inactive

Prompt: Called result for O=C(O)c1ccc2c(c1)nc(Nc1cccc(Cl)c1)c1ccncc12 [SILMITASERTIB]
Response: inactive

Prompt: Called result for COc1cc2ncnc3c2cc1OCCCCCN(C)Cc1ccc(Br)cc1N3 [JNJ-26483327]
Response: inactive

Prompt: Called result for CC(C)(O)CC(=O)NCCn1ccc2ncnc(Nc3ccc(Oc4cccc(C(F)(F)F)c4)c(Cl)c3)c21 [TAK-285]
Response: inactive

Prompt: Called result for CN(c1ncccc1CNc1nc(Nc2ccc3c(c2)CC(=O)N3)ncc1C(F)(F)F)S(C)(=O)=O [PF-00562271]
Response: inactive

Prompt: Called result for Cc1c(Cn2c(C)nc3c(C(=O)O)cc(N4CCOCC4)cc32)cccc1C(F)(F)F [GSK-2636771]
Response: inactive
